The reported numbers originate from patent US20220119513A1.

target-under-test: T1, TGFβ1 (R&D Systems)
T1 construct: also called TGFB1
T1 sequence (P01137 279-390): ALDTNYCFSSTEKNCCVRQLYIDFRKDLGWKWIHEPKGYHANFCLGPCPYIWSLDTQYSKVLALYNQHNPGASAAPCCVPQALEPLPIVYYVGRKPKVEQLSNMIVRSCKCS
test-description: SPR full titration
Items are presented alongside their recorded Kd.

binder	Kd / nM
affinity matured HcLb 275 (antibody, V domains shown, full IgG; also called canHcLb/55SW/100DY/57SM/30IW/31TF/28TK + canHcLb/237ND/242TS) VH: EVQLVQSGAEVKKPGASVKVSCKTSGYKFWFYWMNWVRQAPGAGLDWMGQIFPAWGMTNYNEMFEGRVTLTADTSTSTAYMELSSLRAGDIAVYYCARGYGNYALDAMDYWGQGTLVTVSS VL: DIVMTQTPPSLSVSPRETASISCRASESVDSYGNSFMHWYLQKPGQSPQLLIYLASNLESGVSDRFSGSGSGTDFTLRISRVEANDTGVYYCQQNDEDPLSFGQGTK	2.39
affinity matured HcLb 217 (antibody, V domains shown, full IgG; also called canHcLb/S55W/D100Y/I30/M + canHcLb/237ND/242TS) VH: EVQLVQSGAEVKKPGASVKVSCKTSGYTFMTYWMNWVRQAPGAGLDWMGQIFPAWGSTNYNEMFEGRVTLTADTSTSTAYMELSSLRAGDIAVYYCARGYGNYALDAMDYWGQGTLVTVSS VL: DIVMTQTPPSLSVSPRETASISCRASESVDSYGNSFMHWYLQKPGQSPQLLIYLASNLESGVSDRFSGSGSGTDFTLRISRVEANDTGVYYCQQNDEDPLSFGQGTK	2.58
